Target: UniProt P10635
Sequence (P10635 whole entry): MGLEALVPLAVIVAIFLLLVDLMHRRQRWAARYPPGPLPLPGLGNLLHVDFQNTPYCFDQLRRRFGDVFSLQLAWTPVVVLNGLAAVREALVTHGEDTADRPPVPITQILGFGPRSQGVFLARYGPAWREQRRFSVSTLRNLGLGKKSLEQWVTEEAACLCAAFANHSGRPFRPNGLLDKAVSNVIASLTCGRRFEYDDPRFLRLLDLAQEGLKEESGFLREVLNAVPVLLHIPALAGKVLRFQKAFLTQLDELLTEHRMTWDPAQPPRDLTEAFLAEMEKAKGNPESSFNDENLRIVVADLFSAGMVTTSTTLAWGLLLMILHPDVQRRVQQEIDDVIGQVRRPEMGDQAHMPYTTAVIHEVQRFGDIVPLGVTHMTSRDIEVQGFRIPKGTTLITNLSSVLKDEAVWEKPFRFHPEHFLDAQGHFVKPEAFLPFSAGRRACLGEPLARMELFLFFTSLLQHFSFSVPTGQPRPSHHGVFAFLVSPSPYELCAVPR
Test: CYP2D6 inhibition assay (bufuralol, pooled human liver microsomes)
Details: 2D6 IC50, CYP enzyme inhibition
measure: pIC50
Answer as the number alone; pIC50 is minus log10 of concentration in mol/L.

CC(C)(C)Cc1cnc2c(c1)[C@@H](NC[C@@H](O)[C@H](Cc1cccc(-c3nccs3)c1F)NC(=O)[C@@H]1CCCO1)CC1(CCC1)O2	5.62
COCC(=O)N[C@@H](Cc1ccc(F)cc1)[C@H](O)CN[C@H]1CC2(CCC2)Oc2c1cc(CC(C)C)cc2-n1ccnc1	5.66
CO[C@H](C)C(=O)N[C@@H](Cc1cc(F)cc(-c2nccs2)c1)[C@H](O)CN[C@H]1CC2(CCC2)Oc2ncc(C#CC3CC3)cc21	6.52

Now let's try a different one.
For C#Cc1ccc(F)c(C[C@H](NC(=O)[C@@H](C)OC)[C@H](O)CN[C@H]2CC3(CCC3)Oc3ncc(CC(C)(C)C)cc32)c1 the compound record lists pIC50 as 6.05

* * *

Target: UniProtKB P56817
Sequence (P56817 46-501): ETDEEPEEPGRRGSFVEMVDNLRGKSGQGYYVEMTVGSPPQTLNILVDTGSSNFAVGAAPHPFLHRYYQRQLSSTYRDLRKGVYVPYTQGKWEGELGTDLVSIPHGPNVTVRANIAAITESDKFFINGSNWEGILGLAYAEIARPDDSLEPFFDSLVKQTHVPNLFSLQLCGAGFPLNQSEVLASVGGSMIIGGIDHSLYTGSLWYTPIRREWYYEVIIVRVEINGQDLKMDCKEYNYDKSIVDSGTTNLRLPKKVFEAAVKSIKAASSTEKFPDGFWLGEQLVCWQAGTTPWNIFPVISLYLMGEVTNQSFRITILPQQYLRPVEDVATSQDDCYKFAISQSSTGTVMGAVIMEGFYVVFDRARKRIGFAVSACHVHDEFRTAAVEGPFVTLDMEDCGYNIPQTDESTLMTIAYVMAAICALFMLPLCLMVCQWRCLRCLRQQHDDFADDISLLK
Assay: In vitro enzymatic BACE FRET (fluorescence resonance energy transfer) assay;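 note: fluorescence read after 1 h with 50 nM quenched peptide substrate spanning the BACE cleavage site, in pH 4.2 acetate buffer containing 10% DMSO and nonionic detergent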
Type: biochemical
Conditions: Table 2; read-out: BACE1 FRET assay
So basically: is IC50 under 20 nM? Then 1. Not under? Then 0.

C[C@H](F)C(=O)N[C@@H](Cc1ccc2c(c1)OCO2)[C@H](O)CN[C@H]1CC2(CCC2)Oc2ncc(CC(C)(C)C)cc21	1
CO[C@H](C)C(=O)N[C@@H](Cc1cc(F)cc(F)c1)[C@H](O)CN[C@H]1CC2(CCC2)Oc2c(-c3cnc[nH]3)cc(CC(C)C)cc21	0
CO[C@@H](C)C(=O)N[C@@H](Cc1ccc2c(c1)OCO2)[C@H](O)CN[C@H]1CC2(CCC2)Oc2c1cc(CC(C)(C)C)nc2N(C)C	0
COCC(=O)N[C@@H](Cc1ccc(F)cc1)[C@H](O)CN[C@H]1CC2(CCC2)Oc2nc(C)c(CC(C)(C)C)cc21	0
COCC(=O)N[C@@H](Cc1ccc2c(c1)OCO2)[C@H](O)CN[C@H]1CC2(CCC2)Oc2ncc(CCC(F)(F)F)cc21	0
CO[C@H](C)C(=O)N[C@@H](Cc1cc(F)cc(F)c1)[C@H](O)CN[C@H]1CC2(CCC2)Oc2c(-c3nccs3)cc(CC(C)C)cc21	1

Let's switch to this molecule now.
Check if IC50 falls below 20 nM for CC(C)(C)Cc1cnc2c(c1)[C@@H](NC[C@@H](O)[C@H](Cc1ccc3c(c1)OCO3)NC(=O)[C@H]1CCC(=O)C1)CC1(CCC1)O2 . 0

* * *

Target: CYP3A4 (CYP3A) (Homo sapiens);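 note: inhibition of CYP3A-mediated 1-hydroxymidazolam formation after 10 min incubation with NADPH, quantified by HPLC MS relative to metabolite produced without test compound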
Sequence (P08684 2-503): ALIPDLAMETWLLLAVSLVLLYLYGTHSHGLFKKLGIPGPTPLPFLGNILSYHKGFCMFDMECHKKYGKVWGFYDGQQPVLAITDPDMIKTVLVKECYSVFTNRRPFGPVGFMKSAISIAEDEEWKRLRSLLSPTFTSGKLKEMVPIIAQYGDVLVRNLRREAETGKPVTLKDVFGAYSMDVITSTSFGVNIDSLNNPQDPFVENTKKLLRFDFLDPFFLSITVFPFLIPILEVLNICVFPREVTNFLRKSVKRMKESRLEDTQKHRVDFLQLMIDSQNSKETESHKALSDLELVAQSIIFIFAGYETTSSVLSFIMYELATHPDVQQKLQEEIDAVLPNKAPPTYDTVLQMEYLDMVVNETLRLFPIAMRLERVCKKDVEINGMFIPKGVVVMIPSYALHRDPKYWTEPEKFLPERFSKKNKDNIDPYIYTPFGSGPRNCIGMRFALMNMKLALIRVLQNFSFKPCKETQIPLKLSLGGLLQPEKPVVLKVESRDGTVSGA
Test: in vitro
Conditions: microsomes, pH 7.4
Property: IC50; scope: individual compounds

These solved cases illustrate the format of a correct answer.
C[C@@H](O)C(=O)N[C@@H](Cc1ccc(F)cc1)[C@H](O)CN[C@H]1CC2(CCC2)Oc2ncc(CC(C)(C)C)cc21	750 nM
COCC(=O)N[C@@H](Cc1cccc(Br)c1)[C@H](O)CN[C@H]1CC2(CCC2)Oc2ncc(CC(C)C)cc21	200 nM
CC[C@H](OC)C(=O)N[C@@H](Cc1ccc(F)cc1)[C@H](O)CN[C@H]1CC2(CCC2)Oc2ncc(CC(C)(C)C)cc21	200 nM
CO[C@H](C)C(=O)N[C@@H](Cc1ccccc1)[C@H](O)CN[C@H]1CC2(CCC2)Oc2c1cc(CC(C)(C)C)nc2-c1ccncc1	100 nM
CCC(=O)N[C@@H](Cc1cc(F)cc(-c2nccs2)c1)[C@H](O)CN[C@H]1CC2(CCC2)Oc2ncc(CC(C)(C)C)cc21	200 nM

For COCC(=O)N[C@@H](Cc1cccc(F)c1)[C@H](O)CN[C@H]1CC2(CCC2)Oc2c(-c3ccnc(OC)c3)cc(CC(C)(C)C)cc21 the compound record lists IC50 as 1000 nM

For CO[C@H](C)C(=O)N[C@@H](Cc1ccncc1)[C@H](O)CN[C@H]1CC2(CCC2)Oc2ncc(CC(C)(C)C)cc21 the compound record lists IC50 as 500 nM

For CC(C)(C)Cc1cnc2c(c1)[C@@H](NC[C@@H](O)[C@H](Cc1ccc(F)cc1)NC(=O)[C@@H]1CN(Cc3ccccc3)CCO1)CC1(CCC1)O2 the compound record lists IC50 as 300 nM

* * *

Property: RLM; scope: individual compounds
Assay: Microsomal stability assay, rat liver microsomes;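 note: rat liver microsomes (0.25 mg/mL) with about 1 µM compound plus 1 mM NADPH, pH 7.4, 37 °C for 30 min, parent left measured by LC-MS/MS against 0 min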
Conditions: rat liver microsomal data
I only need the number, in µL/min/mg, no unit after it.

These solved cases illustrate the format of a correct answer.
CCO[C@@H](C)C(=O)N[C@@H](Cc1ccc2c(c1)OCO2)[C@H](O)CN[C@H]1CC2(CCC2)Oc2ncc(CC(C)C)cc21	117
COCC(=O)N[C@@H](Cc1ccc(F)cc1)[C@H](O)CN[C@H]1CC2(CCC2)Oc2c1cc(CC(C)C)cc2-n1ccnc1	157
CCOCC(=O)N[C@@H](Cc1ccc(F)c(-c2nccs2)c1)[C@H](O)CN[C@H]1CC2(CCC2)Oc2ncc(CC(C)(C)C)cc21	47
C#Cc1cc(F)cc(C[C@H](NC(=O)[C@@H](C)OC)[C@H](O)CN[C@H]2CC3(CCC3)Oc3ncc(CC(C)C)cc32)c1	109
COCC(=O)N[C@@H](Cc1cccc(-c2nccs2)c1)[C@H](O)CN[C@H]1CC2(CCC2)Oc2ncc(C3CCCC3)cc21	64
COCC(=O)N[C@@H](Cc1cccc(C(C)=O)c1)[C@H](O)CN[C@H]1CC2(CCC2)Oc2ncc(CC(C)(C)C)cc21	278

For C#Cc1cnc2c(c1)[C@@H](NC[C@@H](O)[C@H](Cc1cc(F)cc(-c3nccs3)c1)NC(=O)COC)CC1(CCC1)O2 the compound record lists RLM as 64

For COCC(=O)N[C@@H](Cc1cc(Br)cc(Br)c1)[C@H](O)CN[C@H]1CC2(CCC2)Oc2ncc(CC(C)(C)C)cc21 the compound record lists RLM as 274

For C#Cc1cnc2c(c1)[C@@H](NC[C@@H](O)[C@H](Cc1cc(F)cc(-c3nccs3)c1)NC(=O)[C@@H](C)OC)CC1(CCC1)O2 the compound record lists RLM as 64

For C#Cc1cccc(C[C@H](NC(=O)C(OC)OC)[C@H](O)CN[C@H]2CC3(CCC3)Oc3ncc(CC(C)(F)F)cc32)c1 the compound record lists RLM as 35

For COCC(=O)N[C@@H](C[C@@H]1CCOC1)[C@H](O)CN[C@H]1CC2(CCC2)Oc2ncc(CC(C)(C)C)cc21 the compound record lists RLM as 68

* * *

Assay: Microsomal stability assay, human liver microsomes
Conditions: human liver microsomal data
Property: HLM; scope: individual compounds
I only need the number, in µL/min/mg, no unit after it.

These solved cases illustrate the format of a correct answer.
CO[C@H](C)C(=O)N[C@@H](Cc1cc(F)cc(Cl)c1)[C@H](O)CN[C@H]1CC2(CCC2)Oc2ncc(CC(C)(F)F)cc21	682
COCC(=O)N[C@@H](Cc1cccc(-c2nccs2)c1)[C@H](O)CN[C@H]1CC2(CCC2)Oc2ncc([C@@H]3CC3(C)C)cc21	51

Now let's try a different one.
For CC(=O)N[C@@H](Cc1ccc2c(c1)OCO2)[C@H](O)CN[C@H]1CC2(CCC2)Oc2ncc(CC(F)(F)F)cc21 the compound record lists HLM as 32

* * *

Test: Microsomal stability assay, human liver microsomes;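 note: pooled human liver microsomes at 0.25 mg/mL with 1 µM compound and NADPH at 37 °C, pH 7.4, for 30 min, unchanged parent quantified by LC-MS/MS against the 0 min sample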
Details: human liver microsomes
So basically: is HLM under 40 µL/min/mg? Then True. Not under? Then False.

See these solved cases before continuing.
COCC(=O)N[C@@H](Cc1ccc(F)cc1)[C@H](O)CN[C@H]1CC(C)(C)Oc2ncc(CC(C)(C)C)cc21	False
CO[C@H](C)C(=O)N[C@@H](Cc1ccc2c(c1)OCO2)[C@H](O)CN[C@H]1CC2(CCC2)Oc2ncc([C@@H]3CC3(C)C)cc21	True
CN1CCO[C@@H](C(=O)N[C@@H](Cc2ccc(F)cc2)[C@H](O)CN[C@H]2CC3(CCC3)Oc3ncc(CC(C)(C)C)cc32)C1	False

Check if HLM falls below 40 µL/min/mg for CO[C@H](C)C(=O)N[C@@H](Cc1cc(F)cc(F)c1)[C@H](O)CN[C@H]1CC2(CCC2)Oc2c(-c3cncn3C)cc(CC(C)C)cc21 . True

Check if HLM falls below 40 µL/min/mg for COCC(=O)N[C@@H](Cc1ccc(F)c(-c2nccs2)c1)[C@H](O)CN[C@H]1CC2(CCC2)Oc2ncc(CC(C)(C)F)cc21 . True

Check if HLM falls below 40 µL/min/mg for CC(=O)N[C@@H](Cc1cc(F)cc(F)c1)[C@H](O)CN[C@H]1CC2(CCC2)Oc2c1cc(CC(C)(C)C)nc2-c1ccncc1 . True

Check if HLM falls below 40 µL/min/mg for CN1CCO[C@H](C(=O)N[C@@H](Cc2ccc(F)cc2)[C@H](O)CN[C@H]2CC3(CCC3)Oc3ncc(CC(C)(C)C)cc32)C1 . False

Check if HLM falls below 40 µL/min/mg for CNc1nc(CC(C)(C)C)cc2c1OC1(CCC1)C[C@@H]2NC[C@@H](O)[C@H](Cc1ccc(F)c(-c2nccs2)c1)NC(=O)COC . False
